Catalogue of binders with associated binding signal (nm shift)
Target: T1, Human VSIG4-L-Fc (human)
T1 construct: also called hVSIG4-L-Fc; hVSIG4-L
T1 sequence (chain, as listed by the source limits assumed): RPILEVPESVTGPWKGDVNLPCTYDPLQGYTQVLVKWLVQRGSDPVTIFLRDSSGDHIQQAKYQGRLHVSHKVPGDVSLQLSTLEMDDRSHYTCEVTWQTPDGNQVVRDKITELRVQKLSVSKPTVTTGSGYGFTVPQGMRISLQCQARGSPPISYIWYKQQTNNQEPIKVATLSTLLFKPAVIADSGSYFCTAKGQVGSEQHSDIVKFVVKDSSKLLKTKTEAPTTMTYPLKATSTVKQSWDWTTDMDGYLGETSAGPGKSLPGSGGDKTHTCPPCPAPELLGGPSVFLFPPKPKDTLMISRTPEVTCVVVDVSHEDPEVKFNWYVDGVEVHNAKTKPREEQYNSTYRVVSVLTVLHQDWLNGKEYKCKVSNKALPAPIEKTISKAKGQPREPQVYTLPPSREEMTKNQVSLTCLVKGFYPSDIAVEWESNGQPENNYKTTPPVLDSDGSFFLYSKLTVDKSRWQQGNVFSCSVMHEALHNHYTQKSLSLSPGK
Assay: BLI cross-blocking on hVSIG4-L-Fc, competitor 14C05 first
parameter: binding signal (nm shift)

5D2.C8 mouse/human chimeric IgG4 (S228P) kappa (antibody, V domains shown) VH: EVKLVESGGGLVKPGGSLKLSCAVSGFTFSNSAMSWVRQTPAKRLEWVAYISISGDNTYYPDSVKGRFTISRDNAKNTLYLQMSSLRSEDTAMYYCARRGYDYDGFTHWGQGTLVTVSA VL: DILLTQSPAILSVSPGERVSFSCRASQNIGTSIHWYQQRTNGSPRLLIKYASQSISGIPSRFSGSGSGTDFTLSINSVESEDIADYYCQQSYSWPLTFGTGTQLELKR ... 0.12 nm
A2 anti-VSIG4 antibody, human IgG4 (S228P) kappa (antibody, V domains shown, variable regions from U.S. Pat. Publ) VH: QVTLKESGPTLVKPTQTLTLTCTFSGISLTTSGMGVGWIRQPPGKALEWLADIFWDDNKYYNPSLKSRLTITKDTSKNQVVLTMTNMDPVDTATYYCVRVYYKNDGYFDVWGKGTTVTVSS VL: DIVLTQSPLSLPVTLGQPASISCRASKSVTTSGYSFMHWYQQRPGQSPRLLIYLASNLEPGVPDRFSGSGSGTDFTLKIFRVEAEDVGVYYCQQSGELPYTFGQGTKLEIKR ... 0.57 nm
